Values compiled from paper PMC5933782.

molecular target: UniProt O35492; experiment: radiometric protein kinase assay; details: 10 µM concentration; ± SEM
Sequence (O35492 whole entry): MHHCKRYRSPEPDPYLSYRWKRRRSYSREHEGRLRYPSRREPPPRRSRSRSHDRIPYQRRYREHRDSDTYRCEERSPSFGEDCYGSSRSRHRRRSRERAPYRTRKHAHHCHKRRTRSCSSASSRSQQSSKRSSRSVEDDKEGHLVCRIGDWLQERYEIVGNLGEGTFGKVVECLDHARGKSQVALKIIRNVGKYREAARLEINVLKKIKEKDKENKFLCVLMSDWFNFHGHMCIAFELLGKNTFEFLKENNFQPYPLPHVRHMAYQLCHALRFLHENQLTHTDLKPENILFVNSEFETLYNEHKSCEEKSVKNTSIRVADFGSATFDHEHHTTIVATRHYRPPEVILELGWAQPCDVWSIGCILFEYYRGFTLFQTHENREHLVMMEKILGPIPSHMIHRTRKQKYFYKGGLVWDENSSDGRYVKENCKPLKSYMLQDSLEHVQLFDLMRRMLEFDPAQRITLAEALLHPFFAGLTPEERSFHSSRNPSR
Measured metric: Residual enzyme activity CLK 3 (%)
# output: bare number, implied unit %

Example cases with answers are listed next.
Cc1c(-c2ccccc2)[nH]c2c3c(ccc12)CNC3=O [S18c] :: 93
CCc1[nH]c2c3c(ccc2c1C)CNC3=O [S18a] :: 92
Cc1[nH]c2c3c(ccc2c1C)C(=O)NC3=O :: 91

The reported value for CCc1c(-c2ccccc2)[nH]c2c3c(ccc12)CNC3=O [S18d] in terms of Residual enzyme activity CLK 3 is 110

The reported value for Cc1[nH]c2c3c(ccc2c1C)CNC3=O [S18b] in terms of Residual enzyme activity CLK 3 is 104

The reported value for Cc1ccc(-c2[nH]c3c4c(ccc3c2C)CNC4=O)cc1 [S18e] in terms of Residual enzyme activity CLK 3 is 105

----------
Measured Residual enzyme activity CDK1/cyclin B of individual entries
test system: CDK1/cyclin B; assay: radiometric protein kinase assay; assay type: biochemical, starfish; details: 10 µM concentration; ± SEM
# output: bare number, implied unit %

Example cases with answers are listed next.
CCc1c(-c2ccccc2)[nH]c2c3c(ccc12)CNC3=O [S18d] :: 109
Cc1[nH]c2c3c(ccc2c1C)C(=O)NC3=O [S19] :: 81
O=C1NCc2ccc3c(-c4ccccc4)c[nH]c3c21 [8a] :: 71
Cc1[nH]c2c3c(ccc2c1C)CNC3=O [S18b] :: 93
Cc1c(-c2ccccc2)[nH]c2c3c(ccc12)CNC3=O [S18c] :: 77
CCc1[nH]c2c3c(ccc2c1C)CNC3=O [S18a] :: 94

Now turn to the next compound.
Cc1ccc(-c2[nH]c3c4c(ccc3c2C)CNC4=O)cc1 [S18e] tested on CDK1/cyclin B gave Residual enzyme activity CDK1/cyclin B: 100

----------
molecular target: GSK-3; assay: radiometric protein kinase assay; conditions: 15 μmol/L ATP; read-out: IC50 GSK3
Measured metric: IC50

CN1Cc2ccc3c(-c4ccccc4)c[nH]c3c2C1=O [12d] :: > 10 µM
O=C1NCc2ccc3c(-c4cccc(O)c4)c[nH]c3c21 [8g] :: > 10 µM

Now turn to the next molecule.
The reported value for O=C1NCc2c(-c3cccc(F)c3)cc3c(-c4ccccc4)c[nH]c3c21 [17c] in terms of IC50 is > 10 µM

----------
Test system DYRK1B (Homo sapiens), pIC50 listed for each of the compounds.
Reminder that pIC50 is minus the log10 of a molar concentration.

COc1cccc(-c2c[nH]c3c4c(ccc23)CNC4=O)c1 [8f] :: 5.72

Cc1cccc(-c2c[nH]c3c4c(ccc23)CNC4=O)c1 [8i] tested on DYRK1B (Homo sapiens) gave pIC50: 5.39

Cc1[nH]c2c3c(c(Br)cc2c1-c1ccccc1)CNC3=O [12b] tested on DYRK1B (Homo sapiens) gave pIC50: 6.96

O=C1NCc2ccc3c(-c4cccc(O)c4)c[nH]c3c21 [8g] tested on DYRK1B (Homo sapiens) gave pIC50: 6.41

----------
Measured IC50 of individual entries
Protein target, amino acids: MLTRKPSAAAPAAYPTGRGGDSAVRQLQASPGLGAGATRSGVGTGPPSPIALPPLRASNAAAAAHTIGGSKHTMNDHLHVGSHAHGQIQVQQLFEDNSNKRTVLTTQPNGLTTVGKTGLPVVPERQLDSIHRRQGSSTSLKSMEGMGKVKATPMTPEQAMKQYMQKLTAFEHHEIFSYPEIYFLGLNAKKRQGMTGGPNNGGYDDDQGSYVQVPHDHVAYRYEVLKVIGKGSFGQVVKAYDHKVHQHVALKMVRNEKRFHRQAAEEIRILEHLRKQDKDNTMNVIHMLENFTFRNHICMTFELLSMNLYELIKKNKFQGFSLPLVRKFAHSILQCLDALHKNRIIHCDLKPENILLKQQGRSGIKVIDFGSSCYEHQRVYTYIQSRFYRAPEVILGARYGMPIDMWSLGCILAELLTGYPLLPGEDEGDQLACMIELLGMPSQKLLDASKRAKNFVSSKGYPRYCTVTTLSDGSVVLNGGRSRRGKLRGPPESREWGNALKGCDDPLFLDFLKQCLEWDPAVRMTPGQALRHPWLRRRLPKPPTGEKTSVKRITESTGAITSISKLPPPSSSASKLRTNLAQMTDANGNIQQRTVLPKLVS
# output: bare number, implied unit µM

O=C1NCc2ccc3c(-c4ccccc4)c(Br)[nH]c3c21 :: 1.8
O=C1NCc2ccc3c(-c4cccc([N+](=O)[O-])c4)c[nH]c3c21 :: 4.9
O=C1NCc2ccc3c(-c4cccc(O)c4)c[nH]c3c21 :: 0.59
O=C1NCc2c(Cl)cc3c(-c4ccccc4)c[nH]c3c21 [12c] :: 2.3

Now turn to the next compound.
The reported value for COc1cccc(-c2c[nH]c3c4c(ccc23)CNC4=O)c1 in terms of IC50 is 2.1

----------
biological target: CDK2/cyclin A (Homo sapiens, UniProt P24941); assay: radiometric protein kinase assay; conditions: 15 μmol/L ATP; read-out: IC50 CDK2/cyclinA
Measured IC50 of individual entries

CCOC(=O)Cn1cc(-c2ccccc2)c2ccc3c(c21)C(=O)NC3 [15d] :: > 10 µM
O=C1NCc2c(-c3ccccc3F)cc3c(-c4ccccc4)c[nH]c3c21 [17b] :: > 10 µM
COc1cccc(-c2c[nH]c3c4c(ccc23)CNC4=O)c1 :: > 10 µM

The reported value for Cc1[nH]c2c3c(ccc2c1-c1ccccc1)CNC3=O in terms of IC50 is > 10 µM

The reported value for Cn1cc(-c2ccccc2)c2ccc3c(c21)C(=O)NC3 [15a] in terms of IC50 is > 10 µM

The reported value for CCc1[nH]c2c3c(ccc2c1-c1ccccc1)CNC3=O in terms of IC50 is > 10 µM

The reported value for CN1Cc2ccc3c(-c4ccccc4)cn(C)c3c2C1=O [15e] in terms of IC50 is > 10 µM

The reported value for CCn1cc(-c2ccccc2)c2ccc3c(c21)C(=O)NC3 [15b] in terms of IC50 is > 10 µM

The reported value for O=C1NCc2c(Cl)cc3c(-c4ccccc4)c[nH]c3c21 [12c] in terms of IC50 is > 10 µM

The reported value for O=C1NCc2ccc3c(-c4cccc(Cl)c4)c[nH]c3c21 in terms of IC50 is > 10 µM

----------
biological target: CDK5/p25 (Homo sapiens); construct: made in house; assay: radiometric protein kinase assay; type: biochemical; details: 10 µM concentration; ± SEM
Sequence (Q00535 whole entry): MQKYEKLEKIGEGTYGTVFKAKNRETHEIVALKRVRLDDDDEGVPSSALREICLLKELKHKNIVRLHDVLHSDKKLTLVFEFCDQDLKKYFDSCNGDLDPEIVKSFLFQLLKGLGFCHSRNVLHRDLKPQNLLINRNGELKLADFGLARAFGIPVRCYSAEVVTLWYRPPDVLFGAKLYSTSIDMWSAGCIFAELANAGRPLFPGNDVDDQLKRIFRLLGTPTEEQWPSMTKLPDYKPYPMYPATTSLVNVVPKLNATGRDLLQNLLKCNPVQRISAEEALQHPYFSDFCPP
Sequence (Q15078 99-307 partner limits assumed): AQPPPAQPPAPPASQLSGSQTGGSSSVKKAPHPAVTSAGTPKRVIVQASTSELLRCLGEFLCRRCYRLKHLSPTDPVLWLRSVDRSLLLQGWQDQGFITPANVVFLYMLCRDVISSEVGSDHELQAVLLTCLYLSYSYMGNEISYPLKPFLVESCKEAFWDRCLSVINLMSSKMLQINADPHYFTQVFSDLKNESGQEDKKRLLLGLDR
Measured Residual enzyme activity CDK5/p25 of individual entries

The reported value for Cc1[nH]c2c3c(ccc2c1C)CNC3=O [S18b] in terms of Residual enzyme activity CDK5/p25 is 111±18%

----------
Test system CLK4 (Mus musculus, UniProt O35493), IC50 listed for each of the compounds.

Example cases with answers are listed next.
O=C1NCc2c(-c3ccccc3F)cc3c(-c4ccccc4)c[nH]c3c21 [17b] :: 910 nM
CN1Cc2ccc3c(-c4ccccc4)c[nH]c3c2C1=O [12d] :: > 10000 nM
O=C1NCc2ccc3c(-c4cccc([N+](=O)[O-])c4)c[nH]c3c21 :: 61 nM
O=C1NCc2ccc3c(-c4ccccc4)c(Br)[nH]c3c21 :: 29 nM
O=C1NCc2c(Cl)cc3c(-c4ccccc4)c[nH]c3c21 [12c] :: 300 nM
O=C1NCc2ccc3c(-c4ccc(Cl)cc4)c[nH]c3c21 :: 130 nM
COc1cccc(-c2c[nH]c3c4c(ccc23)CNC4=O)c1 :: 110 nM
Cn1cc(-c2ccccc2)c2ccc3c(c21)C(=O)NC3 [15a] :: 160 nM

O=C1NCc2ccc3c(-c4cccc(O)c4)c[nH]c3c21 tested on CLK4 (Mus musculus, UniProt O35493) gave IC50: 81 nM

NC(=O)Cn1cc(-c2ccccc2)c2ccc3c(c21)C(=O)NC3 [15c] tested on CLK4 (Mus musculus, UniProt O35493) gave IC50: > 10000 nM

Cc1cccc(-c2c[nH]c3c4c(ccc23)CNC4=O)c1 tested on CLK4 (Mus musculus, UniProt O35493) gave IC50: 140 nM

O=C1NCc2c(-c3cccc(F)c3)cc3c(-c4ccccc4)c[nH]c3c21 [17c] tested on CLK4 (Mus musculus, UniProt O35493) gave IC50: 3200 nM

O=C1NCc2c(-c3ccccc3)cc3c(-c4ccccc4)c[nH]c3c21 [17a] tested on CLK4 (Mus musculus, UniProt O35493) gave IC50: 1300 nM

O=C1NCc2ccc3c(-c4ccc(Cl)c(Cl)c4)c[nH]c3c21 tested on CLK4 (Mus musculus, UniProt O35493) gave IC50: 130 nM

O=C1NCc2ccc3c(-c4cccc(Cl)c4)c[nH]c3c21 tested on CLK4 (Mus musculus, UniProt O35493) gave IC50: 28 nM

CC(=O)Oc1cccc(-c2c[nH]c3c4c(ccc23)CNC4=O)c1 tested on CLK4 (Mus musculus, UniProt O35493) gave IC50: 130 nM

Cc1[nH]c2c3c(c(Br)cc2c1-c1ccccc1)CNC3=O [12b] tested on CLK4 (Mus musculus, UniProt O35493) gave IC50: < 30 nM

CN1Cc2ccc3c(-c4ccccc4)cn(C)c3c2C1=O [15e] tested on CLK4 (Mus musculus, UniProt O35493) gave IC50: > 10000 nM

O=C1NCc2ccc3c(-c4ccccc4)c[nH]c3c21 tested on CLK4 (Mus musculus, UniProt O35493) gave IC50: 120 nM
